Provide the reported aptazyme ON/OFF ratio of each item.
B1: Pistol ribozyme (parent)
chain: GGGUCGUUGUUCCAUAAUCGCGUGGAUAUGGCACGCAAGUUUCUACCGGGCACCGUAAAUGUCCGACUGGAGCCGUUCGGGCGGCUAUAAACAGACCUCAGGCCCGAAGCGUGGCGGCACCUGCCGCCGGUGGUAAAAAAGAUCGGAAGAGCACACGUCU

Variants of: B1
Assay: aptazyme ON/OFF ratio, guanine; higher = stronger switching; co-transcriptional cleavage with and without guanine
Output spec: single numeric token, no unit.

Fill blank: measured aptazyme ON/OFF ratio of the variant U7A U8G G9C U11A C12A C13A is ____.
1.25

Now the same for U8G G9A U10A U11A C12U C13U
1.21

Then U7G U8C U10A U11C C13G ?
1.04

U7C U8G G9C U10G U11G C12U , same question.
1.29

Try the variant U7C U8G C12U C13A
1.22

Here is the next variant: U7A U8G G9U U11C C12G
1.26

And U7A U8G G9U U10A U11C C12A ?
1.39

Thanks! And U7G U8G G9U U10C U11G C12A C13G ?
1.15

Repeat for the following variant: U7G U8C G9U U10C U11A C12U C13G
1.39

Same lookup for U7C U11A C13G , please.
1.04

Field entry: U8A G9A U10A U11G
1.34

Try the variant U7A U10A U11A C12A C13U
1.21

And U8A G9A U11A C12U C13G ?
1.18

Also U8C U11C C13G ?
1.11

What do you have for U8C G9A U10C U11A C12G C13U ?
1.19

Next entry: U7C U10A C12A C13U
1.25

Please give the result for U7G U8C G9A U10G U11A C13A too.
1.05

Likewise for U8C U10A U11A C12A C13A ?
1.19

Another variant: U7G U8A G9U C12U C13A
1.06

Queued: U7C G9A U10C U11G C12U C13G
1.34

Same question, U8C G9C U10G U11A C13U this time
1.06

Another variant to look at: U7A G9U U10G U11G C12A C13U
1.21

Would you kindly repeat that for U7C U8C G9C U10C U11A C13A ?
1.14

Input G9C U11G C12U
1.84

Also, U7A U8G G9A U11G C12A C13U please.
1.07

# repeat for U7C U8A G9C U10A U11C
1.05

Entry to check: U7G U8G G9C U10G C12U
1.17

Another variant to check: U7A U8A G9C U10C U11A C12G C13G
1.06

Now consider U7C U8C G9C U10G C12U C13U and answer again.
1.08

What would you report for U7A U8A G9A U10G U11G C13G ?
1.21

Repeat with U7G U8G G9C C12A C13G
1.08

Follow-up item: U8A G9U U10G U11A C12G C13G
1.31

Let us now turn to U7G U8C G9C U10C U11A C12A C13G
1.09

Please give the result for U8A U10C U11G C12U C13G too.
1.2

And what about the variant U7G U10C U11G C12G C13U ?
1.05

Subsequent entry: U7C U8A G9A U10G U11C C12A
1.2

Also U7A U8G G9C U10G U11G C12A C13A ?
1.18

Follow-up entry: U7G G9C U10C U11A C12A C13A
1.21

Moving on to U7A U8G G9A U11A
1.7

Subsequent entry: U7A U8G G9U U10C C12G
1.24

# iterate: U7A U8G U10A U11G C12A C13A
1.28

Same again, this time with U7A U8G G9A U11C C12G C13U
1.14

Also, U7C U8C G9A U10A U11G C12U C13U please.
1.16

Param item: U7C U8G G9U U10G U11A C12U C13A
1.24

Also check U7A U8G G9A U11G C12G C13A
1.1

Another variant to check: U7A U8C G9C U10A U11G C12U C13U
1.14
